Consider the following compounds; for each one, report its MIC.
tested on: Staphylococcus aureus; experiment: microbe, parasite or virus in culture
Description: Antibacterial activity against Staphylococcus aureus
One number for each entry, in µg/mL.

Each of the following entries comes with a recorded value; kindly state MIC for each.
1. Cc1nn(-c2ccccc2)c2c1C1(C(=O)Nc3ccc(Br)cc31)C1=C(CCCC1=O)O2 (centres undefined)
2. O=C(N[C@H](CO)[C@H](O)c1ccc([N+](=O)[O-])cc1)C(Cl)Cl
3. Cc1nn(-c2ccccc2)c2c1C1(C(=O)Nc3ccc([N+](=O)[O-])cc31)C1=C(CC(C)(C)CC1=O)O2 (centres undefined)
4. Cc1nn(-c2ccccc2)c2c1C1(C(=O)Nc3ccc(Br)cc31)c1c(C)nn(-c3ccccc3)c1O2

128
8
32
64
